# subjectOfTest: olfactory receptor OR5K1 (Homo sapiens)
# Construct: expressed in transfected cells; host or cells: HEK293
# Sequence (Q8NHB7 1-308): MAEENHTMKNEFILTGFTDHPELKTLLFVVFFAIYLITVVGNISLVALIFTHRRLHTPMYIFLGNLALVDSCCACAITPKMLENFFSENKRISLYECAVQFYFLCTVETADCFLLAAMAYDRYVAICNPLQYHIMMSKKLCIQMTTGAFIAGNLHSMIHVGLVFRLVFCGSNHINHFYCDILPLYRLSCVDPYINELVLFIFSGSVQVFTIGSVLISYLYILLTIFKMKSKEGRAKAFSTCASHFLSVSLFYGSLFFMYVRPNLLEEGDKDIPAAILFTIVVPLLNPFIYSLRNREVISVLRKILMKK
# assaySummary: Antagonistic activity against OR5K1: inhibition of the receptor response to 2,6-dimethylpyrazine (luciferase assay, HEK293 cells)
# Format: cell-based
# protocolConditions: 2,6-dimethylpyrazine 1 mM + test substance 300 μM, cytotoxic flavoring agents re-evaluated at 333 μM 2,6-dimethylpyrazine + 100 μM test substance, read-out: Inhibition rate (receptor response-inhibiting rate)
Record form. Attribute: inhibition at 300 µM. Fill in for each entry.

Query block: Any idea what inhibition at 300 µM was measured for CC(C=O)c1ccccc1 (centres unmarked) ?
Result block: ≥ 50%

Query block: Could you share which inhibition at 300 µM value was measured for O=CC=Cc1ccccc1 ?
Result block: ≥ 50%

Query block: Could you tell me which inhibition at 300 µM is on file for CCC(=CCC1CC=C(C)C1(C)C)CO (centres unmarked) ?
Result block: ≥ 75%

Query block: Which measured inhibition at 300 µM value corresponds to CC(=O)c1c(C)c([N+](=O)[O-])c(C(C)(C)C)c([N+](=O)[O-])c1C ?
Result block: ≥ 40%

Query block: Any idea what inhibition at 300 µM was measured for CCC=C(C)C(O)CCCCC (centres unmarked) ?
Result block: ≥ 75%

Query block: Requested read-out: inhibition at 300 µM. Entry: C=CCc1ccc(O)c(OC)c1 [1-allyl-3-methoxy-4-hydroxybenzene]
Result block: ≥ 40%

Query block: Item under review: C=CCCC(=O)C1=CCCC(C)(C)C1 . Reported inhibition at 300 µM?
Result block: ≥ 40%

Query block: Endpoint output: inhibition at 300 µM of C=C(OCC)C1C(C)(C)CC(=O)CC1(C)C . Value?
Result block: ≥ 50%

Query block: Entry CC(=O)c1cc(C(C)(C)C)cc2c1C=CC2(C)C : reported inhibition at 300 µM = ?
Result block: ≥ 40%

Query block: // returns reported inhibition at 300 µM for input CC(=O)C1(C)CC2=C(CCCC2(C)C)CC1C (centres unmarked)
Result block: ≥ 75%

Query block: Give the measured inhibition at 300 µM of O=C1CCCCCCCCCCCC(=O)OCCO1 .
Result block: ≥ 40%
